target: GPR6 (Homo sapiens, UniProt P46095); construct: expressed in transfected cells; host or cells: CHO cells; experiment: GPR6 antagonist functional cAMP assay (LANCE Ultra cAMP TR-FRET, CHO cells stably expressing GPR6); format: cell-based; settings: procedure as described in Example 24
Sequence (P46095 whole entry): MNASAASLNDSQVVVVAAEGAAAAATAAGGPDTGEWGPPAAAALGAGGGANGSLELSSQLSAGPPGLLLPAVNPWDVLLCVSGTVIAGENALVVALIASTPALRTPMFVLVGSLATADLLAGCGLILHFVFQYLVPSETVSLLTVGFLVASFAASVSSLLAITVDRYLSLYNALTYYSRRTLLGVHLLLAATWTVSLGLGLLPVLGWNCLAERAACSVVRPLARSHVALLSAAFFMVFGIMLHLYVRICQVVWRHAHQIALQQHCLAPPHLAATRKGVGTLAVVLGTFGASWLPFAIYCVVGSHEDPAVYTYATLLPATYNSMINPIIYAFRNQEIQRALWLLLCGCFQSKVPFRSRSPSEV
I'd be grateful if you could share measured IC50 for these entries.

// below: answered compounds
COMPOUND STRING | TESTED TARGET | IC50
CC(=O)N1CCc2nc(N3CCC(Oc4ccc(F)cc4F)CC3)c(-c3ccc(=O)n(C)c3)nc2C1 | GPR6 (Homo sapiens, UniProt P46095) | 1 to 30 µM
CC(=O)N1CCc2nc(N3CCC(Oc4ccc(F)cc4F)CC3)c(-c3cccc(N(C)C)n3)nc2C1 | GPR6 (Homo sapiens, UniProt P46095) | 1 to 30 µM
CC(=O)N1CCc2nc(N3CCC(Oc4ccc(F)cc4F)CC3)c(-c3cnsc3)nc2C1 | GPR6 (Homo sapiens, UniProt P46095) | 0.1 to 1 µM
CC(=O)N1CCc2nc(N3CCC(Oc4ccc(F)cc4F)CC3)c(-c3ncn[nH]3)nc2C1 | GPR6 (Homo sapiens, UniProt P46095) | 1 to 30 µM
Fc1ccc(OC2CCN(c3nc4ccncc4nc3-c3cn[nH]c3)CC2)c(F)c1 | GPR6 (Homo sapiens, UniProt P46095) | 0.1 to 1 µM

Hi team, please reply with IC50 for each item in this list.
1. CC(=O)N1CCc2nc(N3CCC(Oc4ccc(F)cc4F)CC3)c(-c3ncccn3)nc2C1
2. COCn1cc(-c2nc3c(nc2N2CCC(Oc4ccc(F)cc4F)CC2)CCN(C(C)=O)C3)cn1

a:
["1 to 30 µM", "0.1 to 1 µM"]

Hi team, please reply with IC50 for each item in this list.
1. COCn1ccnc1-c1nc2ccncc2nc1N1CCN(Cc2ccc(F)cc2Cl)CC1
2. CC(=O)N1CCc2nc(N3CCC(Oc4ccc(F)cc4F)CC3)c(-c3cn[nH]c3)nc2C1
3. CC(=O)N1CCc2nc(N3CCC(Oc4ccc(F)cc4F)CC3)c(-c3cccc(OC(C)(C)C)n3)nc2C1
4. CN(c1ccc(F)cc1F)C1CCN(c2nc3ccncc3nc2-c2cn[nH]c2)CC1
5. CC(=O)N1CCc2nc(N3CCC(Oc4ccc(F)cc4F)CC3)c(-c3cncnc3)nc2C1
6. CC(=O)N1CCc2nc(N3CCC(Oc4ccc(F)cc4F)CC3)c(-c3cnn(CC(F)F)c3)nc2C1
7. Fc1ccc(NC2CCN(c3nc4ccncc4nc3-c3cn[nH]c3)CC2)c(F)c1

a:
["≥ 30 µM", "0.1 to 1 µM", "1 to 30 µM", "1 to 30 µM", "1 to 30 µM", "0.1 to 1 µM", "1 to 30 µM"]

Hi team, please reply with IC50 for each item in this list.
1. Clc1ccc(Cl)c(CN2CCN(c3nc4ccncc4nc3-c3ncc[nH]3)CC2)c1
2. CC(=O)N1CCc2nc(N3CCC(Oc4ccc(F)cc4F)CC3)c(-c3cccc(OC4CCC4)n3)nc2C1

a:
0.1 to 1 µM
1 to 30 µM

====

I'd be grateful if you could share measured IC50 for these entries.
target: GPR6 (Homo sapiens); construct: expressed in transfected cells; host or cells: CHO cells; experiment: GPR6 antagonist functional cAMP assay (LANCE Ultra cAMP TR-FRET, CHO cells stably expressing GPR6); type: cell-based; conditions: CHO cells stably expressing GPR6, cAMP assay (Example 24)

// below: answered compounds
COMPOUND | TESTED TARGET | IC50
CC(=O)N1CCc2nc(N3CCC(Oc4ccc(F)cc4F)CC3)c(-c3cncc(C)n3)nc2C1 | GPR6 (Homo sapiens) | 1000 to 30000 nM
CCn1ccc(-c2nc3c(nc2N2CCC(Oc4ccc(F)cc4F)CC2)CCN(C(C)=O)C3)n1 | GPR6 (Homo sapiens) | 100 to 1000 nM
COc1ccc(-c2nc3c(nc2N2CCC(Oc4ccc(F)cc4F)CC2)CCN(C(C)=O)C3)nn1 | GPR6 (Homo sapiens) | 100 to 1000 nM
Cn1cc(-c2nc3cnccc3nc2N2CCC(C)(Oc3ccc(F)cc3F)CC2)cn1 | GPR6 (Homo sapiens) | 100 to 1000 nM
N#CCN1CCc2nc(N3CCC(Oc4ccc(F)cc4F)CC3)c(-c3cnn(C4CCCCO4)c3)nc2C1 (stereo not drawn) | GPR6 (Homo sapiens) | 1000 to 30000 nM

Hi team, please reply with IC50 for each item in this list.
1. Cn1cc(-c2nc3cnc([C@@H](O)C(C)(C)O)cc3nc2N2CCC(Oc3ccc(F)cc3F)CC2)cn1 (single isomer, unassigned)
2. COC1C=C(c2nc3c(nc2N2CCC(Oc4ccc(F)cc4F)CC2)CCN(C(C)=O)C3)CCC1 (stereo not drawn)
3. CC(=O)N1CCc2nc(N3CCC(Oc4ccc(F)cc4F)CC3)c(-c3cncc(Cl)n3)nc2C1
4. C[C@@H](O)[C@@H](O)c1cc2nc(N3CCC(Oc4ccc(F)cc4F)CC3)c(-c3cnn(C)c3)nc2cn1 (single isomer, unassigned)
5. CCc1cccc(-c2nc3c(nc2N2CCC(Oc4ccc(F)cc4F)CC2)CCN(C(C)=O)C3)n1

a:
100 to 1000 nM
100 to 1000 nM
1000 to 30000 nM
100 to 1000 nM
1000 to 30000 nM

====

target: GPR6 (Homo sapiens, UniProt P46095); construct: expressed in transfected cells; host or cells: CHO cells; assay: GPR6 antagonist functional cAMP assay (LANCE Ultra cAMP TR-FRET, CHO cells stably expressing GPR6); type: cell-based; conditions: CHO cells stably expressing GPR6, cAMP assay (Example 24)
pIC50: −log10 of the molar value.
MEASUREMENT LABEL: pIC50

COMPOUND | ASSAY RESULT
COc1nccc(-c2nc3c(nc2N2CCC(Oc4ccc(F)cc4F)CC2)CCN(C(C)=O)C3)n1 [Compound 111] | 6.00 to 7.00
N#CCN1CCc2nc(N3CCC(Oc4ccc(F)cc4F)CC3)c(-c3cn[nH]c3)nc2C1 [Compound 119] | 6.00 to 7.00
CC(=O)N1CCc2nc(N3CCC(Oc4c(F)cc(F)cc4F)CC3)c(-c3cnn(C)c3)nc2C1 [Compound 428] | 6.00 to 7.00
CC(=O)N1CCc2nc(N3CCN(Cc4ccc(F)cc4)CC3)c(-c3cnn(C)c3)nc2C1 [Compound 257] | 4.52 to 6.00
Cn1cc(-c2nc3cnc(C4CNC(=O)CO4)cc3nc2N2CCC(Oc3ccc(F)cc3F)CC2)cn1 (stereo not drawn) [Compound 464] | 6.00 to 7.00
COc1cccc(OC2CCN(c3nc4c(nc3-c3cnn(C)c3)CN(C(C)=O)CC4)CC2)c1F [Compound 427] | 4.52 to 6.00

Hi team, please reply with pIC50 for each item in this list.
1. CN1CC(c2cc3nc(N4CCC(Oc5ccc(F)cc5F)CC4)c(-c4cnn(C)c4)nc3cn2)OC1=O (stereo not drawn) [Compound 482]
2. COc1ccc(OC2CCN(c3nc4c(nc3-c3cnn(C)c3)CN(C(C)=O)CC4)CC2)c(F)c1 [Compound 452]
3. COc1cncc(-c2nc3c(nc2N2CCC(Oc4ccc(F)cc4F)CC2)CCN(C(C)=O)C3)n1 [Compound 87]

a:
["6.00 to 7.00", "6.00 to 7.00", "6.00 to 7.00"]

Hi team, please reply with pIC50 for each item in this list.
1. COC[C@@H]1CN(Cc2ccc(F)cc2F)CCN1c1nc2ccncc2nc1-c1cnn(C)c1 (single isomer, unassigned) [Compound 240]
2. COCCN1CCc2nc(N3CCC(Oc4ccc(F)cc4F)CC3)c(-c3cnn(C4CCCCO4)c3)nc2C1 (stereo not drawn) [Compound 142]
3. C=CC(=O)N1CCc2nc(N3CCC(Oc4ccc(F)cc4F)CC3)c(-c3cn[nH]c3)nc2C1 [Compound 203]
4. O=c1cccc(-c2nc3ccncc3nc2N2CCC(Oc3ccc(F)cc3F)CC2)[nH]1 [Compound 99]

a:
["4.52 to 6.00", "4.52 to 6.00", "> 7.00", "4.52 to 6.00"]

Hi team, please reply with pIC50 for each item in this list.
1. CC(=O)N1CCc2nc(N3CCC(Oc4ccc(F)cc4F)CC3)c(-c3cncc(N)n3)nc2C1 [Compound 465]
2. [2H]C([2H])([2H])n1cc(-c2nc3c(nc2N2CCC(Oc4ccc(F)cc4F)CC2)CCN(C(C)=O)C3)cn1 [Compound 405]

a:
1: 6.00 to 7.00; 2: 6.00 to 7.00

====

I'd be grateful if you could share measured IC50 for these entries.
biological target: GPR6 (Homo sapiens); construct: expressed in transfected cells; host or cells: CHO cells; assay: GPR6 antagonist functional cAMP assay (LANCE Ultra cAMP TR-FRET, CHO cells stably expressing GPR6); assay type: cell-based; details: procedure of Example 24

// below: answered compounds
COMPOUND | TESTED TARGET | IC50
CC(C)(O)[C@@](C)(O)c1cc2nc(N3CCC(Oc4ccc(F)cc4F)CC3)c(-c3cnn(CF)c3)nc2cn1 (single isomer, unassigned) | GPR6 (Homo sapiens) | 0.1 to 1 µM
CC(=O)N1CCc2nc(N3CCN(Cc4ccc(Cl)cc4F)CC3)c(-c3ccc(F)c(N)n3)nc2C1 | GPR6 (Homo sapiens) | < 0.1 µM

Hi team, please reply with IC50 for each item in this list.
1. CC(=O)N1CCc2nc(N3CCN(Cc4cc(C#N)ccc4F)CC3)c(-c3cnn(C)c3)nc2C1
2. COC[C@](C)(O)c1cc2nc(N3CCC(Oc4ccc(F)cc4F)CC3)c(-c3cnn(C)c3)nc2cn1 (single isomer, unassigned)
3. COc1ccc(CN2CCN(c3nc4c(nc3-c3cnn(C)c3)CN(C(C)=O)CC4)CC2)c(F)c1
4. CC(C)(O)[C@@H](O)c1cc2nc(-c3cnn(C4CC4)c3)c(N3CCN(Cc4ccccc4F)CC3)nc2cn1 (single isomer, unassigned)
5. Cn1cc(-c2nc3c(nc2N2CC[C@H](Oc4ccc(F)cc4F)[C@H](F)C2)CCN(Cc2ccccc2)C3)cn1 (single isomer, unassigned)

a:
1. 1 to 30 µM
2. 0.1 to 1 µM
3. 0.1 to 1 µM
4. 0.1 to 1 µM
5. 1 to 30 µM

Hi team, please reply with IC50 for each item in this list.
1. CCn1cc(-c2nc3c(nc2N2CCC(Oc4ccc(F)cc4F)CC2)CCN(C(=O)CO)C3)cn1
2. Cn1cc(-c2nc3cnc(C(O)CN)cc3nc2N2CCC(Oc3ccc(F)cc3F)CC2)cn1 (stereo not drawn)
3. COc1nc(-c2nc3c(nc2N2CCC(Oc4ccc(F)cc4F)CC2)CCN(C(C)=O)C3)cnc1Cl
4. CC(=O)N1CCc2nc(N3CCCC(Oc4ccccc4)C3)c(-c3cnn(C)c3)nc2C1 (stereo not drawn)
5. CC(=O)N1CCc2nc(N3CCN(C(=O)c4cc(F)cc(F)c4)CC3)c(-c3cnn(C)c3)nc2C1
6. COc1ccc(C(=O)N2CCN(c3nc4c(nc3-c3cnn(C)c3)CN(C(C)=O)CC4)CC2)cc1F
7. CC(C)(O)[C@H](O)c1cc2nc(-c3cnn(CF)c3)c(N3CCC(Cc4ccc(F)cc4F)CC3)nc2cn1 (single isomer, unassigned)

a:
["< 0.1 µM", "0.1 to 1 µM", "< 0.1 µM", "≥ 30 µM", "≥ 30 µM", "≥ 30 µM", "< 0.1 µM"]

Hi team, please reply with IC50 for each item in this list.
1. CC(C)(O)C(C)(O)c1cc2nc(N3CCC(Oc4ccc(F)cc4F)CC3)c(-c3cnn(CF)c3)nc2cn1 (stereo not drawn)
2. FCn1cc(-c2nc3cc(Cl)ncc3nc2N2CCN(Cc3ccc(F)cc3F)CC2)cn1
3. CC(C)(O)C(O)c1cc2nc(-c3cnn(CF)c3)c(N3CCC(=Cc4ccc(F)cc4F)CC3)nc2cn1 (single isomer, unassigned) [Compound 771]
4. CC(=O)N1CCc2nc(N3CCC(Oc4ccc(F)cc4F)CC3)c(C3=CCOC3)nc2C1

a:
1. 0.1 to 1 µM
2. 0.1 to 1 µM
3. 0.1 to 1 µM
4. 0.1 to 1 µM

Hi team, please reply with IC50 for each item in this list.
1. Cn1cc(-c2nc3cc([C@@H](O)C(C)(C)O)ncc3nc2N2CCC(=Cc3ccc(F)cc3F)CC2)cn1 (single isomer, unassigned)
2. OCCNc1cc2nc(-c3cnn(CF)c3)c(N3CCN(Cc4ccc(F)cc4F)CC3)nc2cn1
3. C=CC(=O)N1CCc2nc(N3CCC(Oc4ccc(F)cc4F)CC3)c(-c3cnn(CC)c3)nc2C1
4. CC(C)(O)C(C)(O)c1cc2nc(-c3cnn(C(F)F)c3)c(N3CCN(Cc4ccc(F)cc4F)CC3)nc2cn1 (single isomer, unassigned) [Compound 662]
5. CC(=O)N1CCc2nc(N3CCN(C(=O)c4ccc(F)cc4C#N)CC3)c(-c3cnn(C)c3)nc2C1
6. Cn1cc(-c2nc3cnccc3nc2N2CC[C@H](Oc3ccc(F)cc3F)[C@H](F)C2)cn1 (single isomer, unassigned)
7. Cn1cc(-c2nc3cc(C(C)(O)CO)ncc3nc2N2CCC(Oc3ccc(F)cc3F)CC2)cn1 (single isomer, unassigned) [Compound 692]

a:
1. < 0.1 µM
2. 0.1 to 1 µM
3. < 0.1 µM
4. < 0.1 µM
5. 1 to 30 µM
6. 1 to 30 µM
7. 0.1 to 1 µM

Hi team, please reply with IC50 for each item in this list.
1. CC(=O)N1CCc2nc(N3CCN(Cc4ccccc4C#N)CC3)c(-c3cnn(C)c3)nc2C1
2. CC(=O)N1CCc2nc(N3CCC(Cc4ccc(F)cc4F)C3)c(-c3cnn(C)c3)nc2C1 (stereo not drawn)

a:
1: 1 to 30 µM; 2: 1 to 30 µM
